PROPERTY_NAME: melting point

{"MOLECULE": "Cc1c(-c2ccccc2)oc2c(CNC(=O)CCl)cccc2c1=O", "ENDPOINT_RESULT": "152 to 155 °C"}
{"MOLECULE": "COc1ccccc1N1CCc2c1c1cccc(C)c1[nH]c2=O", "ENDPOINT_RESULT": "193 to 195 °C"}
{"MOLECULE": "COC(=O)C(C#N)C(c1ccccc1OC)c1ccnc2ccccc12 (stereo unspecified)", "ENDPOINT_RESULT": "169 to 171 °C"}
{"MOLECULE": "O=Cc1c2ccccc2c(C=O)c2c(Cl)cccc12", "ENDPOINT_RESULT": "186 to 189 °C"}
{"MOLECULE": "O=c1oc(-c2cccc(C(F)(F)F)c2)ns1", "ENDPOINT_RESULT": "85 to 86.5 °C"}
{"MOLECULE": "CCOC(=O)N1CCC(NS(=O)(=O)c2ccc3ccccc3c2)CC1", "ENDPOINT_RESULT": "128 °C"}
{"MOLECULE": "O=C1NCCN1c1ccc(S(=O)(=O)Nc2ccc(I)cc2)cc1", "ENDPOINT_RESULT": "266 to 267 °C"}
{"MOLECULE": "CN(C)CC#CCN1CCNC1=O", "ENDPOINT_RESULT": "83 to 87 °C"}
{"MOLECULE": "CC(C)(C)OC(=O)NCC12CCC1CN(Cc1ccccc1)C2 (stereo unspecified)", "ENDPOINT_RESULT": "78 to 79 °C"}
{"MOLECULE": "CC(C)(C)c1cc(Nc2cccc(OCC(=O)O)c2)cc(C(C)(C)C)c1O", "ENDPOINT_RESULT": "127 to 128 °C"}
{"MOLECULE": "Cn1ccc(-c2ccc(F)cc2)c1-c1ccc(F)cc1", "ENDPOINT_RESULT": "129 to 130 °C"}
{"MOLECULE": "Cc1cc(Oc2ncc(C(F)(F)F)cc2Cl)nn1C(=O)Nc1cccc(Cl)c1", "ENDPOINT_RESULT": "129 to 130 °C"}
{"MOLECULE": "Clc1ccc(C2(CBr)OCC(COc3ccc(Cl)c4ccccc34)O2)c(Cl)c1 (stereo unspecified)", "ENDPOINT_RESULT": "123 °C"}
{"MOLECULE": "COc1cccc2c1cc(C)n2Cc1c(Cl)cccc1Cl", "ENDPOINT_RESULT": "154 to 157 °C"}
{"MOLECULE": "CC(=O)O[C@H]1C[C@@H](N=O)C(Cl)O[C@@H]1COS(=O)(=O)c1ccc(C)cc1 (stereo partly specified)", "ENDPOINT_RESULT": "148 to 150 °C"}
{"MOLECULE": "COc1ccc(CNc2c(OCCC(O)c3ccc(Cl)cc3)n[nH]c(=O)c2Br)cc1OC (stereo unspecified)", "ENDPOINT_RESULT": "190 to 196 °C"}
{"MOLECULE": "O=C(CCCN1CCC(Cc2ccccc2)CC1)c1ccc2c(c1)Cc1cc(C(=O)CCCN3CCC(Cc4ccccc4)CC3)ccc1-2", "ENDPOINT_RESULT": "135 to 137 °C"}
{"MOLECULE": "CCC1(C)OC(c2ccc(S(C)(=O)=O)cc2)=C(c2ccc(C(C)=O)cc2)C1=O (stereo unspecified)", "ENDPOINT_RESULT": "147 to 148 °C"}
{"MOLECULE": "Nc1n[nH]c2c(F)c(F)ccc12", "ENDPOINT_RESULT": "183 °C"}
{"MOLECULE": "CC(=O)NC(C)(C)c1ccc(CN2CCN(c3cccc(F)n3)CC2)cc1", "ENDPOINT_RESULT": "133 to 134 °C"}
{"MOLECULE": "Nc1c(NC2CCc3ccccc32)[nH]c(=O)[nH]c1=O (stereo unspecified)", "ENDPOINT_RESULT": "> 150 °C"}
